# test_system: DN-IV quality control recombinant protein (produced by the company) (dengue virus)
# experimental_protocol: BLI, antibody on AMC sensor
Assign Kd to each entry below.
Report the value in nM with no unit label.

Problem: What Kd value was documented for this binder, Mutation 1-48 (antibody, V domains shown) VH: EVQLQQPGPELVKPGASVKMSCKASGYTFTSTVIHWVRQKPGQGLEWIGYMNPYNDGLKYNEKFIGKAILTSDKSSSTAYMQLSSLTSEDSAVYYCTKEGLFYVMDYWGQGTSVTVSS VL: QIVLTQSPAIMSASPGEKVTMTCSATSSLSYMHWYQQKSGTSPKRWIYDSSKLASGVPVRFSGSGSGTSYSLTISSMEAEDAATYFCQWWRSDLPTFGAGTKLELKR ?
Solution: 0.665

Problem: What Kd value was documented for this binder, Mutation 1-21 (antibody, V domains shown) VH: EVQLQQPGPELVKPGASVKMSCKASGYTFTSTVIHWVRQKPGQGLEWIGYMNPYNDGIKYNEKFIGKAILTSDKSSSTAYMQLSSLTSEDSAVYYCTREGLFYVMDYWGQGTSVTVSS VL: QIVLTQSPAIMSASPGEKVTMTCSATSSLSYMHWYQQKSGTSPKRWIYDTSKLASGVPVRFSGSGSGTSYSLTISSMEAEDAATYFCQWWRSDLPTFGAGTKLELKR ?
Solution: 0.693

Problem: What Kd value was documented for this binder, Mutation 1-25 (antibody, V domains shown) VH: EVQLQQPGPELVKPGASVKMSCKASGYTFTSSVIHWVRQKPGQGLEWIGYMNPYNDGLKYNEKFIGKAILTSDKSSSTAYMQLSSLTSEDSAVYYCTREGLFYVFDYWGQGTSVTVSS VL: QIVLTQSPAIMSASPGEKVTMTCSATSSISYMHWYQQKSGTSPKRWIYDSSKLASGVPVRFSGSGSGTSYSLTISSMEAEDAATYFCQWWRSDLPTFGAGTKLELKR ?
Solution: 2.92

Problem: What Kd value was documented for this binder, Mutation 1-31 (antibody, V domains shown) VH: EVQLQQPGPELVKPGASVKMSCKASGYTFTSSVIHWVRQKPGQGLEWIGYMNPYNDGIKYNEKFIGKAILTSDKSSSTAYMQLSSLTSEDSAVYYCTREGLFYVFDYWGQGTSVTVSS VL: QIVLTQSPAIMSASPGEKVTMTCSATSSVSYMHWYQQKSGTSPKRWIYDSSKLASGVPVRFSGSGSGTSYSLTISSMEAEDAATYFCQWWRSDLPTFGAGTKLELKR ?
Solution: 0.579

Problem: What Kd value was documented for this binder, Mutation 1-40 (antibody, V domains shown) VH: EVQLQQPGPELVKPGASVKMSCKASGYTFTSSVIHWVRQKPGQGLEWIGYMNPYNDGLKYNEKFIGKAILTSDKSSSTAYMQLSSLTSEDSAVYYCTKEGLFYVFDYWGQGTSVTVSS VL: QIVLTQSPAIMSASPGEKVTMTCSATSSVSYMHWYQQKSGTSPKRWIYDTSKLASGVPVRFSGSGSGTSYSLTISSMEAEDAATYFCQYWRSDLPTFGAGTKLELKR ?
Solution: 0.671

Problem: What Kd value was documented for this binder, Mutation 1-36 (antibody, V domains shown) VH: EVQLQQPGPELVKPGASVKMSCKASGYTFTSTVIHWVRQKPGQGLEWIGYMNPYNDGLKYNEKFIGKAILTSDKSSSTAYMQLSSLTSEDSAVYYCTREGLFYVFDYWGQGTSVTVSS VL: QIVLTQSPAIMSASPGEKVTMTCSATSSLSYMHWYQQKSGTSPKRWIYDSSKLASGVPVRFSGSGSGTSYSLTISSMEAEDAATYFCQQWRSDLPTFGAGTKLELKR ?
Solution: 0.657

Problem: What Kd value was documented for this binder, Mutation 1-33 (antibody, V domains shown) VH: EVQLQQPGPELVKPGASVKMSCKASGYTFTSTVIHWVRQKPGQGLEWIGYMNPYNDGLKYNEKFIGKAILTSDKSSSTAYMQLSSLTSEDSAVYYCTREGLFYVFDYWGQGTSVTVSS VL: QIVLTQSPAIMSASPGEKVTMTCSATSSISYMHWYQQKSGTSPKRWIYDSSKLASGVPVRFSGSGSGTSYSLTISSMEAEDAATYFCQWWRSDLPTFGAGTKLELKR ?
Solution: 0.56

Problem: What Kd value was documented for this binder, Mutation 1-37 (antibody, V domains shown) VH: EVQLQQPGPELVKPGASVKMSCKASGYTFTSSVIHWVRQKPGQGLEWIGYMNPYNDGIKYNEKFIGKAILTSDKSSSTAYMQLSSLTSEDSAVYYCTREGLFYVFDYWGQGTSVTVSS VL: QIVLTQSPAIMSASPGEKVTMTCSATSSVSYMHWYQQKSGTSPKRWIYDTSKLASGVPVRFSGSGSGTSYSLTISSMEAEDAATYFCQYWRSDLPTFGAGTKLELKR ?
Solution: 3.63

Problem: What Kd value was documented for this binder, Mutation 1-15 (antibody, V domains shown) VH: EVQLQQPGPELVKPGASVKMSCKASGYTFTSTVIHWVRQKPGQGLEWIGYMNPYNDGIKYNEKFIGKAILTSDKSSSTAYMQLSSLTSEDSAVYYCTKEGLFYVFDYWGQGTSVTVSS VL: QIVLTQSPAIMSASPGEKVTMTCSATSSISYMHWYQQKSGTSPKRWIYDSSKLASGVPVRFSGSGSGTSYSLTISSMEAEDAATYFCQYWRSDLPTFGAGTKLELKR ?
Solution: 3.79

Problem: What Kd value was documented for this binder, Mutation 1-4 (antibody, V domains shown) VH: EVQLQQPGPELVKPGASVKMSCKASGYTFTSSVIHWVRQKPGQGLEWIGYMNPYNDGLKYNEKFIGKAILTSDKSSSTAYMQLSSLTSEDSAVYYCTKEGLFYVMDYWGQGTSVTVSS VL: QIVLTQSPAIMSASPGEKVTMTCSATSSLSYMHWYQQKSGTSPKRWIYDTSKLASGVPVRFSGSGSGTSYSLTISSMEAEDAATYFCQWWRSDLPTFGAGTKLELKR ?
Solution: 0.478

FYI, the data here is from patent US20210324054A1.
